experiment: chemical genetic growth profiling, strain panel (AID 1159580);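 note: tested at 20 µM; growth read once vehicle control cultures reached saturation at 30 °C; 1 = growth at the plate median or of vehicle wells; lower values mean less growth of the strain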
condition.details: S. cerevisiae deletion strains, growth OD, locus YER167W, strain BCK2
Out of some 5,500 compounds screened, about 2,000 (36%) were called active. Inconclusive results (about 18%) are left out. Cut-off read from the data, not from the text of the source: active = normalized growth mostly below about 0.91 (no sharp cut-off); inconclusive = no clear call, values can overlap the other calls; inactive = mostly above about 0.92. The list shows a part of the results.
The reply should be one of these categories: active, inactive

**Q:** Record request — test call for O=c1[nH]c2ccccc2n1C1CCN(CCCC(c2ccc(F)cc2)c2ccc(F)cc2)CC1
**A:** inactive

**Q:** Record request — test call for CCNc1nc(Cl)nc(NC(C)C)n1
**A:** inactive

**Q:** Record request — test call for COc1ccc2[nH]cc(CCNC(C)=O)c2c1
**A:** inactive

**Q:** Record request — test call for O=C1c2ccccc2C(=O)c2c1ccc(O)c2O
**A:** active

**Q:** Record request — test call for O=C(CCCN1CC=C(n2c(=O)[nH]c3ccccc32)CC1)c1ccc(F)cc1
**A:** inactive

**Q:** Record request — test call for c1ccc2c(c1)[nH]c1cnccc12
**A:** inactive

**Q:** Record request — test call for COP(=S)(OC)SCn1nnc2ccccc2c1=O
**A:** inactive

**Q:** Record request — test call for O=C1c2ccc(O)c(O)c2C(=O)c2c(O)ccc(O)c21
**A:** inactive

**Q:** Record request — test call for COc1ccc2c(c1)[nH]c1c(C)nccc12
**A:** inactive

**Q:** Record request — test call for Cc1cccc(N(C)C(=S)Oc2ccc3ccccc3c2)c1
**A:** inactive

**Q:** Record request — test call for CC1=C2[C@](C)(C=CC1=O)C[C@H](O)[C@H]1[C@H](C)C(=O)O[C@]21C
**A:** inactive

**Q:** Record request — test call for CC(=O)N[C@@H](CC(=O)O)C(=O)O
**A:** inactive

---

experiment: chemical genetic growth profiling, strain panel (AID 1159580);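 note: tested at 20 µM; growth read once vehicle control cultures reached saturation at 30 °C; 1 = growth at the plate median or of vehicle wells; lower values mean less growth of the strain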
condition.details: S. cerevisiae deletion strains, growth OD, locus YNL307C, strain MCK1 (second series), hits give low values
The campaign covered roughly 5,500 compounds. About 2,000 (36%) were called active. Roughly 18% stayed inconclusive and do not appear here. The list shows a part of the results.
Provide the recorded normalized growth for the entries that follow.
Write the number on its own, no unit after it.

Note to self: normalized growth recorded for Nc1ccccc1C(=O)N/N=C\c1cc(Cl)cc(Cl)c1O was 0.27

Note to self: normalized growth recorded for N#CC(C#N)=NNc1ccc(-n2ccc(C(F)(F)F)n2)cc1 was 0.379

Note to self: normalized growth recorded for NNC(=O)COc1ccc(C2SCCS2)cc1 was 0.157

Note to self: normalized growth recorded for CCC1(c2ccccc2)OC(c2cc(Cl)cc(Cl)c2O)Nc2ccccc21 (centres undefined) was 0.551

Note to self: normalized growth recorded for C(=NC(N=Cc1ccccc1)c1ccccc1)c1ccccc1 (centres undefined) was 0.964

Note to self: normalized growth recorded for O=C(N/N=C\c1cc(Cl)cc(Cl)c1O)c1ccccc1Oc1ccccc1 was 0.906

Note to self: normalized growth recorded for O=C(OCc1ccc(Oc2ccc(Cl)cc2Cl)c([N+](=O)[O-])c1)c1ccc([N+](=O)[O-])o1 was 0.987

Note to self: normalized growth recorded for CSc1sc(-c2ccn[nH]2)c(-c2ccccc2)c1C#N was 1.01

Note to self: normalized growth recorded for Cc1nc(C(F)(F)F)ccc1-c1nnc(SC(=O)c2ccc(Cl)cc2)o1 was 0.589

Note to self: normalized growth recorded for O=C(NCc1ccc(F)c(Cl)c1)Nc1csc([N+](=O)[O-])c1 was 0.973

Note to self: normalized growth recorded for Cc1nc([N+](=O)[O-])cn1CC(=O)c1ccc(Cl)cc1 was 0.967

Note to self: normalized growth recorded for CN(C)c1nc(=S)ss1 was 0.162

Note to self: normalized growth recorded for N#C/C(=N/Nc1ccc(Cl)cc1)C(=O)C1CC1 was 0.641

Note to self: normalized growth recorded for O=C(Oc1ccc(C2SCCS2)cc1)c1cccs1 was 0.784

Note to self: normalized growth recorded for Fc1ccc(Nc2nc(-c3ccc(F)c(F)c3)cs2)c(F)c1 was 0.117

Note to self: normalized growth recorded for O=C(NNc1c(Cl)cccc1Cl)c1ccc([N+](=O)[O-])o1 was 0.887

Note to self: normalized growth recorded for CCOC(=O)C1C(c2ccc(Br)cc2)C(C(=O)OCC)C(O)(C(F)(F)F)NC1(O)C(F)(F)F (centres undefined) was 0.969

Note to self: normalized growth recorded for Cc1nc(C(F)(F)F)ccc1C(=O)Sc1nnc(-c2ccc(C(F)(F)F)nc2C)o1 was 0.868

Note to self: normalized growth recorded for CC(NC(=S)Nc1ccc(Oc2ccc(Cl)cc2)cc1)c1ccccc1 (centres undefined) was 0.906

Note to self: normalized growth recorded for CCCCCc1ccc(-c2nc(SCC(C)=O)n[nH]2)cc1 was 0.826

Note to self: normalized growth recorded for O=C(Nc1ccc(OC(F)(F)F)cc1)Nc1cncc(C(F)(F)F)c1 was 0.886

Note to self: normalized growth recorded for CCCCCc1ccc(S(=O)(=O)Nc2ncc(C)cc2Br)cc1 was 0.811

Note to self: normalized growth recorded for CC(/C=C/c1ccccc1)=N/OC(=O)c1ccccc1Cl was 0.899

Note to self: normalized growth recorded for CCCCc1ccc(N=CNO)c(C)c1 was 0.452
